- subject.of.test: Cloned human M1 receptor (CHRM1) (Homo sapiens)
- Construct: expressed in transfected cells; host or cells: HEK293
- Sequence (P11229 whole entry): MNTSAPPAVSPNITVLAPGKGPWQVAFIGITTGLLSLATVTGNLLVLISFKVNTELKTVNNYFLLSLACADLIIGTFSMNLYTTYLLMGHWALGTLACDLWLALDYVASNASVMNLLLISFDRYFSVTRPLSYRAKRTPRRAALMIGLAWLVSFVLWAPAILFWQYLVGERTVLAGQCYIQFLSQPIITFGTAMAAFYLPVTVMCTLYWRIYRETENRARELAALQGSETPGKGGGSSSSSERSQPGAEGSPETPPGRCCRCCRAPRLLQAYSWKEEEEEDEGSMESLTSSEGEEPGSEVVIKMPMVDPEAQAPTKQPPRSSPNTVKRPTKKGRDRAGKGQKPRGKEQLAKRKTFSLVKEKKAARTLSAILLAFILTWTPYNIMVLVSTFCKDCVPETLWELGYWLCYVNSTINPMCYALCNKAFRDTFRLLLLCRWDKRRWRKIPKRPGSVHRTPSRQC
- experimental.details: CHRM1 Ca++ Flux Assay (HEK293 M1 cells, agonist mode)
- Assay type: cell-based
- details: Percent Activity (PA), read-out: M1 FDSS PA %
quantity.measured: Emax (%)

These recorded examples may help you get a feel for the data.
molecule="CC(C)(O)COc1ccccc1C1CCN([C@@H]2COC3(C2)CN(c2ncns2)C3)CC1 [Example 5Y]" result=47
molecule="Fc1cc(OCC2COC2)c(C2CCN([C@@H]3COC4(C3)CN(c3ncco3)C4)CC2)cc1F [Example 4O]" result=63
molecule="c1ccc(C2CCN([C@@H]3COC4(C3)CN(c3nnco3)C4)CC2)c(OC2COC2)c1 [Example 1P]" result=76
molecule="Fc1ccc(C2CCOCC2)c(C2CCN([C@@H]3COC4(C3)CN(c3ncco3)C4)CC2)c1 [Example 4W]" result=74
molecule="CCc1nnc(COc2ccc(F)cc2C2CCN([C@@H]3COC4(C3)CN(c3nnco3)C4)CC2)s1 [Example 2T]" result=89

1 = Fc1ccc(OC[C@@H]2COCCO2)c(C2CCN([C@@H]3COC4(C3)CN(c3nncs3)C4)CC2)c1 [Example 5L]
2 = Fc1ccc(OC2CC3(COC3)C2)c(C2CCN([C@H]3COC4(C3)CN(c3nnco3)C4)CC2)c1 [Example 7A]
3 = c1ccc(C2CCN([C@@H]3COC4(C3)CN(c3nnco3)C4)CC2)c(CC2CCOCC2)c1 [Example 3G]
Q: Thanks in advance: please rank these 3 entries by Emax, highest to lowest. List the labels, following the order given in the request.
Result: 1, 3, 2
(1: 88%, 3: 44%, 2: 0%)

A = CC(C)(O)CCOc1ccc(F)cc1C1CCN([C@@H]2COC3(C2)CN(c2nnco2)C3)CC1 [Example 1N]
B = COc1cc(F)ccc1C1CCN([C@@H]2COC3(C2)CN(c2nncs2)C3)CC1 [Example 5T]
Q: Between A and B , which one shows the larger Emax value? Please reply using the label of the selected record.
Result: A
(A: 82%, B: 57%)

----------
- subject.of.test: human cloned CHRM5 receptor (Homo sapiens, UniProt P08912)
- Sequence (P08912 whole entry): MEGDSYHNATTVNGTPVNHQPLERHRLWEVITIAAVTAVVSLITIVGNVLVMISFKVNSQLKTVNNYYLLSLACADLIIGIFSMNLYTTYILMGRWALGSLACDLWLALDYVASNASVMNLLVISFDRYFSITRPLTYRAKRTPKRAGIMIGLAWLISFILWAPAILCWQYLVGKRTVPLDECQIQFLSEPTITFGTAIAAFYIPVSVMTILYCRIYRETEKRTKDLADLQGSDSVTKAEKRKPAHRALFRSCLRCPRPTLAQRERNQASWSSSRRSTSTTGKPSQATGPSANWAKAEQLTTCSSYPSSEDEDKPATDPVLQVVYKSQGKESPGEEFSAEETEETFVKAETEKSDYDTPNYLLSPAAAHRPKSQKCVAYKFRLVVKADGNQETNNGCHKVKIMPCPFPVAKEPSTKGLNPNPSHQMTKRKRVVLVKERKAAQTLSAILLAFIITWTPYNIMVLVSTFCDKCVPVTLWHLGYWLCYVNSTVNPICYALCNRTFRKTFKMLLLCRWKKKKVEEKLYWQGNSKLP
- experimental.details: CHRM5 Ca++ Flux Assay (M5_CHO cells, agonist mode)
- details: agonist mode, geometric mean if tested more than once, read-out: M5 FDSS EC50
Reported EC50 values follow for various molecules

These recorded examples may help you get a feel for the data.
molecule="Cc1nnc(COc2ccc(F)cc2C2CCN([C@@H]3COC4(C3)CN(c3nnco3)C4)CC2)s1 [Example 2E]" subject_of_test="human cloned CHRM5 receptor (Homo sapiens, UniProt P08912)" result="1.67 µM"
molecule="COCCOc1ccc(F)cc1C1CCN([C@@H]2COC3(C2)CN(c2ncns2)C3)CC1 [Example 5D]" subject_of_test="human cloned CHRM5 receptor (Homo sapiens, UniProt P08912)" result="> 25 µM"
molecule="Fc1ccc(O[C@@H]2CCOC2)c(C2CCN([C@@H]3COC4(C3)CN(c3nncs3)C4)CC2)c1 [Example 5H]" subject_of_test="human cloned CHRM5 receptor (Homo sapiens, UniProt P08912)" result="> 25 µM"
molecule="Fc1ccc(O[C@@H]2CCOC2)c(C2CCN([C@@H]3COC4(C3)CN(c3ncco3)C4)CC2)c1 [Example 4D]" subject_of_test="human cloned CHRM5 receptor (Homo sapiens, UniProt P08912)" result="> 25 µM"
molecule="CCc1nnc(COc2ccc(F)cc2C2CCN([C@@H]3COC4(C3)CN(c3nnco3)C4)CC2)s1 [Example 2T]" subject_of_test="human cloned CHRM5 receptor (Homo sapiens, UniProt P08912)" result="0.73 µM"
molecule="COc1cc(F)ccc1C1CCN([C@@H]2COC3(C2)CN(c2nncs2)C3)CC1 [Example 5T]" subject_of_test="human cloned CHRM5 receptor (Homo sapiens, UniProt P08912)" result="> 25 µM"
molecule="Fc1ccc(O[C@H]2CCCOC2)c(C2CCN([C@@H]3COC4(C3)CN(c3nnco3)C4)CC2)c1 (single isomer, unassigned) [Example 2R]" subject_of_test="human cloned CHRM5 receptor (Homo sapiens, UniProt P08912)" result="> 25 µM"
molecule="Fc1ccc([C@H]2CCOC2)c(C2CCN([C@@H]3COC4(C3)CN(c3nnco3)C4)CC2)c1 (single isomer, unassigned) [Example 3E]" subject_of_test="human cloned CHRM5 receptor (Homo sapiens, UniProt P08912)" result="> 25 µM"
molecule="c1ccc(C2CCN([C@@H]3COC4(C3)CN(c3nnco3)C4)CC2)c(-c2cncnc2)c1 [Example 1W]" subject_of_test="human cloned CHRM5 receptor (Homo sapiens, UniProt P08912)" result="13.8 µM"
molecule="Fc1ccc(OC[C@H]2CCOC2)c(C2CCN([C@@H]3COC4(C3)CN(c3nncs3)C4)CC2)c1 [Example 5X]" subject_of_test="human cloned CHRM5 receptor (Homo sapiens, UniProt P08912)" result="> 25 µM"

Q: Would you mind telling me what EC50 value was observed for c1ccc(C2CCN([C@@H]3COC4(C3)CN(c3nnco3)C4)CC2)c(O[C@@H]2CCOC2)c1 [Example 1O] ?
Result: > 25 µM

Q: Would you mind telling me what EC50 value was observed for COc1ccccc1C1CCN([C@@H]2COC3(C2)CN(c2ncco2)C3)CC1 [Example 4N] ?
Result: > 25 µM
